Tested on: K-562 leukemia
Test: NCI-60 one-dose screen, 48 h
Settings: 10 µM unless noted
This is part of a sample that, as a whole, favours compounds with a hit. Of some 83,000 tested, about 20% had one in any assay. Activity calls are given as the source filed them. Rule for the calls: active = growth percent below 10; inactive = the rest.
# output must be one of active, inactive

Field: example entries. Status: answers known.
# COMPOUND, ASSAY_TARGET, ANSWER_LABEL
rows = [
    ("CCOC(=O)c1nn(C2CCCCO2)c2ccc(NC(=O)CSc3nc4ccccc4c(=O)[nH]3)cc12 (stereo not given)", "K-562 leukemia", "inactive"),
    ("Cc1cc(C)nc(SCC(=O)Nc2cccc(N=Cc3ccccc3O)c2)n1", "K-562 leukemia", "inactive"),
    ("CC1(C)C(=NO)C(C)(C)C1=NO", "K-562 leukemia", "inactive"),
    ("C=C(C)[C@@H]1CC[C@]2(COCCC#N)CC[C@]3(C)[C@H](CC[C@@H]4[C@@](C)(CCCNCCC#N)[C@H](C(=C)C)CC[C@]43C)[C@@H]12", "K-562 leukemia", "active"),
]

Lookup: What classification did Cn1cc(-c2noc(-c3cn(C)c4ncc(F)cc34)n2)c2cc(Br)ccc21 end up with in this test?
Found: inactive
